All figures here come from patent US20260265238A1.

biological target: SMARCA2-HiBiT HeLa cells (protein which is expressed from the SMARCA2 gene) (Homo sapiens); construct: protein which is expressed from the SMARCA2 and SMARCA4 genes; host or cells: HeLa (SMARCA2-HiBiT engineered line); assay: SMARCA2 degradation assay (HiBiT-fusion HeLa cell line, 24 h, luminescence); assay type: cell-based; conditions: @ 1 μM
Sequence (P51531 whole entry, the tested form may be a part): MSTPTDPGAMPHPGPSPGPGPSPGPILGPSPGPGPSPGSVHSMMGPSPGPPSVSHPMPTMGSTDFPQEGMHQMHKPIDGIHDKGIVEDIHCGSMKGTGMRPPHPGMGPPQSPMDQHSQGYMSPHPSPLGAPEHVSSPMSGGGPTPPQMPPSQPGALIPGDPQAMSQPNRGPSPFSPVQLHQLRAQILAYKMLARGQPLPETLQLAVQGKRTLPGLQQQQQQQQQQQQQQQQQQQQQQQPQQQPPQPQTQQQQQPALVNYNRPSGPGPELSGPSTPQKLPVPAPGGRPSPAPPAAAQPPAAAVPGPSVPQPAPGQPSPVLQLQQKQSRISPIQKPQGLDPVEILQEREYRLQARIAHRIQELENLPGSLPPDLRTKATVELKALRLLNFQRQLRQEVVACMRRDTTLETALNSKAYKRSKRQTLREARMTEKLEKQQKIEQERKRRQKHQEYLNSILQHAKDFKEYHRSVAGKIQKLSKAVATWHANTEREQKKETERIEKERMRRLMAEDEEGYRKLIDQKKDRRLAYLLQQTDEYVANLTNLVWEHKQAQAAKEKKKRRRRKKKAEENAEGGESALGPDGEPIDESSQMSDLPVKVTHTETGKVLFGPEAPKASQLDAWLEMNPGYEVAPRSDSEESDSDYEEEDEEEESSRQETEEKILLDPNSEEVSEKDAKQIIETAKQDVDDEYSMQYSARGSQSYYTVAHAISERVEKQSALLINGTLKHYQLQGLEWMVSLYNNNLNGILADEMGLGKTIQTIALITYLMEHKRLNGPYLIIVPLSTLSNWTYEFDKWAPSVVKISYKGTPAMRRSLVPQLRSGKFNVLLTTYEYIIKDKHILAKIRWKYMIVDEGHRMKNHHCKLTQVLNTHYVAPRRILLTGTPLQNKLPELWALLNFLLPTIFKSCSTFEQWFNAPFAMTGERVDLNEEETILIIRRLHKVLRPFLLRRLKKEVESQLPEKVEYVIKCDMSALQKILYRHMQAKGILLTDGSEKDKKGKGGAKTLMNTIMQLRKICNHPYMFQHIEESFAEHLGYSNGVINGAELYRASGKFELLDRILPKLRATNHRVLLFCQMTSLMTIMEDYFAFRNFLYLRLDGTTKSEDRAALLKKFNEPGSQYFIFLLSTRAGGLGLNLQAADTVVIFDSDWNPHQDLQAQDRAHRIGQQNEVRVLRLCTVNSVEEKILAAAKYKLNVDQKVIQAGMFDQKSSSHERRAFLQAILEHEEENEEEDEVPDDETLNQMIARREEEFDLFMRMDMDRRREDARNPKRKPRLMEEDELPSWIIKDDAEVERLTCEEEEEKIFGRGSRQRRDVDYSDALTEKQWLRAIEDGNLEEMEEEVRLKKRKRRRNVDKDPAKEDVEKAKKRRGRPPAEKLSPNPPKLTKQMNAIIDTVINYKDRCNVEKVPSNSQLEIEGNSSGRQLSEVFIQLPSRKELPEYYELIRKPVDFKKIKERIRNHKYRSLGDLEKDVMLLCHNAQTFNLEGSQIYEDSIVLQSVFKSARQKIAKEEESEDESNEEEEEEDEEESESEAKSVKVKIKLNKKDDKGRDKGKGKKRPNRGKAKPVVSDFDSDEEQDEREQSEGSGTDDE
readout_type: SMARCA2 % Degradation @ 1 μM

These solved cases illustrate the format of a correct answer.
C[C@@H]1CCN(c2cc(-c3ccccc3O)nnc2N)CCN1c1ccnc(C#CCN2CC[C@H](F)C2)n1	++ (++=30-70%)
C[C@@H]1CCN(c2cc(-c3ccccc3O)nnc2N)CCN1c1ccnc(C#CC2CCCCN2C)n1 (stereo partly drawn)	++ (++=30-70%)
CC(C)c1cc(C(C)C)n(CC#Cc2nccc(N3CCCN(c4cc(-c5ccccc5O)nnc4N)CC3)n2)n1	+++ (+++=>70%)
Nc1nnc(-c2ccccc2O)cc1N1CCCN(c2ccnc(C#CCNC3CCOCC3)n2)CC1	+++ (+++=>70%)
CC1CCN(c2cc(-c3ccccc3O)nnc2N)CCN1c1ccnc(C#CCNC(=O)c2cc3ncccn3n2)n1 (stereo not drawn)	+++ (+++=>70%)
Nc1nnc(-c2ccccc2O)cc1N1CCCN(c2ccnc(C#CCN3CCn4nccc4C3)n2)CC1	+++ (+++=>70%)
Nc1nnc(-c2ccccc2O)cc1N1CCCN(c2ccnc(C#CC3COC3)n2)CC1	+++ (+++=>70%)
Nc1nnc(-c2ccccc2O)cc1N1CCCN(c2ccnc(C#CCOc3ncco3)n2)CC1	+++ (+++=>70%)

Give SMARCA2-HiBiT HeLa cells (protein which is expressed from the SMARCA2 gene) (Homo sapiens) SMARCA2 % Degradation @ 1 μM for the following compound: C[C@@H]1CCN1CC#Cc1nccc(N2CCCN(c3cc(-c4ccccc4O)nnc3N)CC2)n1
+++ (+++=>70%)

Report value only: SMARCA2 % Degradation @ 1 μM, SMARCA2-HiBiT HeLa cells (protein which is expressed from the SMARCA2 gene) (Homo sapiens), CC1CC(C)N1CC#Cc1nccc(N2CCN(c3cc(-c4ccccc4O)nnc3N)CC[C@H]2C)n1 (stereo partly drawn)
++ (++=30-70%)

Provide SMARCA2 % Degradation @ 1 μM, recorded with SMARCA2-HiBiT HeLa cells (protein which is expressed from the SMARCA2 gene) (Homo sapiens), of Nc1nnc(-c2ccccc2O)cc1N1CCCN(c2ccnc(C#CCN3CCC3)n2)CC1
++ (++=30-70%)

Report SMARCA2 % Degradation @ 1 μM under test system SMARCA2-HiBiT HeLa cells (protein which is expressed from the SMARCA2 gene) (Homo sapiens) for Nc1nnc(-c2ccccc2O)cc1N1CCN(c2ccnc(C#CCNC(=O)c3cccnn3)n2)CC1 .
++ (++=30-70%)

###

molecular target: SMARCA4-HiBiT HeLa cells (protein which is expressed from the SMARCA4 gene) (Homo sapiens); construct: protein which is expressed from the SMARCA2 and SMARCA4 genes; host or cells: HeLa (SMARCA4-HiBiT engineered line); test: SMARCA4 degradation assay (HiBiT-fusion HeLa cell line, 24 h, luminescence); format: cell-based
Sequence (P51532 whole entry, the tested form may be a part): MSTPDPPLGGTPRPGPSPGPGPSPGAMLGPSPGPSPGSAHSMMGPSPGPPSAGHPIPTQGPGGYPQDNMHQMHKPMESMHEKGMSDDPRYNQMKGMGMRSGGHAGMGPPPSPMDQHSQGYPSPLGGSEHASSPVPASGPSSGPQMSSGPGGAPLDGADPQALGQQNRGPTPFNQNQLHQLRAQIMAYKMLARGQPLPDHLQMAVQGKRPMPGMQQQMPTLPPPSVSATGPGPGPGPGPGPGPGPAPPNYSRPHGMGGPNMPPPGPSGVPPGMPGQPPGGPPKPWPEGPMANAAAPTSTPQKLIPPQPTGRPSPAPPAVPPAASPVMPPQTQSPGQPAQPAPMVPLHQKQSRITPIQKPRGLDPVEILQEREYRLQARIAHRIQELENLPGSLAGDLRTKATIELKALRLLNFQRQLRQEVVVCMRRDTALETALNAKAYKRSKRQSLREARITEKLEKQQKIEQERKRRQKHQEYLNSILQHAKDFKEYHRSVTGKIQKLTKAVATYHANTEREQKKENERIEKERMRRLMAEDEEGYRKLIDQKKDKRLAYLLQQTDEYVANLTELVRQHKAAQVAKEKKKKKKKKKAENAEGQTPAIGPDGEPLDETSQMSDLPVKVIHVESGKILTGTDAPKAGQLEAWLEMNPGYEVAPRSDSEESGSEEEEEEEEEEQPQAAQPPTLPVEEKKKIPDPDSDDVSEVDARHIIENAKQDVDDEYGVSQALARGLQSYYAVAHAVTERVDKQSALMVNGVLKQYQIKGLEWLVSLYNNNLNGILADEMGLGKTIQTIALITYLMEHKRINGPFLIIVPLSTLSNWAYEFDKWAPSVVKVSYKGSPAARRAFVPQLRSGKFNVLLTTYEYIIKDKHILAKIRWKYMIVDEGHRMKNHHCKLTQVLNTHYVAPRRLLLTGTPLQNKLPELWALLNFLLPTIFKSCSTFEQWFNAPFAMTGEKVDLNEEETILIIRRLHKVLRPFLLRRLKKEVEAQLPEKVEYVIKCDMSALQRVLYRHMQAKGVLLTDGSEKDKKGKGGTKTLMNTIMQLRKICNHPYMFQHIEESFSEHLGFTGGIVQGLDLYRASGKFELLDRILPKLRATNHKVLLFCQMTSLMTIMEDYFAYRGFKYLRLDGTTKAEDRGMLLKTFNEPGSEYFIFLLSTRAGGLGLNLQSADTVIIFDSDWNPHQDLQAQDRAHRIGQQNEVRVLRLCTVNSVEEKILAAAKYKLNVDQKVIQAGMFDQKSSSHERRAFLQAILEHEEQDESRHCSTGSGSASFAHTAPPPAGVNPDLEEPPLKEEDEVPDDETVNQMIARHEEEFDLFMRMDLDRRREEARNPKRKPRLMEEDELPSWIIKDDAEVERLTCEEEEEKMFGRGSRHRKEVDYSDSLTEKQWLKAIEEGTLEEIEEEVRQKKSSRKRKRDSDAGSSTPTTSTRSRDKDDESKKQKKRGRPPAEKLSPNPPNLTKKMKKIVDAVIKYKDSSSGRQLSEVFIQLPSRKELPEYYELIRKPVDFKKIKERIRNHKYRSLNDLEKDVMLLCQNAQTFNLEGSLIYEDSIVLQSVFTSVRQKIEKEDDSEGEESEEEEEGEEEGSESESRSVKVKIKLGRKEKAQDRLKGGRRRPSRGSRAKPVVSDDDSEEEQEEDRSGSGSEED
The entries below come with measured DC50 values attached.

Example cases with answers are listed next.
C[C@@H]1CCN(c2cc(-c3ccccc3O)nnc2N)CCN1c1nc(C#CCn2cncn2)ncc1F	50 to 500 nM
Nc1nnc(-c2ccccc2O)cc1N1CCN(c2ccnc(C#CCNC(=O)c3cnc4ccccc4n3)n2)CC1	< 50 nM
Nc1nnc(-c2ccccc2O)cc1N1CCCN(c2ccnc(C#CCN3CCCC(O)C3)n2)CC1 (centres unmarked)	500 to 5000 nM
Nc1nnc(-c2ccccc2O)cc1N1CCCN(c2ccnc(C#CCOc3ncco3)n2)CC1	50 to 500 nM
CCNC(=O)NCC#Cc1nccc(N2CCCN(c3cc(-c4ccccc4O)nnc3N)CC2)n1	500 to 5000 nM
Nc1nnc(-c2ccccc2O)cc1N1C2CC1CN(c1ccnc(C#CCNC(=O)c3cc4ncccn4n3)n1)C2	> 5000 nM
C[C@@H]1CCN1CC#Cc1nccc(N2CCCN(c3cc(-c4ccccc4O)nnc3N)CC2)n1	50 to 500 nM
Nc1nnc(-c2ccccc2O)cc1N1CCN(c2ccnc(C#CCNC(=O)c3cnn4ccccc34)n2)CC1	50 to 500 nM

Let me know recorded DC50 for Nc1nnc(-c2ccccc2O)cc1N1CCN(c2ccnc(C#CCNC(=O)c3cnn4cccnc34)n2)CC1 , thanks.
50 to 500 nM

Answer with the recorded DC50 for the molecule listed here: CC1(C)CN(c2ccnc(C#CCNC(=O)c3cc4ncccn4n3)n2)CCN1c1cc(-c2ccccc2O)nnc1N
50 to 500 nM

Answer with the recorded DC50 for the molecule listed here: Nc1nnc(-c2ccccc2O)cc1N1CCCN(c2ccnc(C#CCNC(=O)OCC(F)(F)F)n2)CC1
50 to 500 nM

Read the entry Nc1nnc(-c2ccccc2O)cc1N1CCCC2C1CCN2c1ccnc(C#CCNC(=O)c2cc3ncccn3n2)n1 (centres unmarked) and write its reported DC50.
50 to 500 nM

Check the records and state DC50 for C[C@@H]1CCN(c2cc(-c3ccccc3O)nnc2N)CCN1c1ccnc(C#CCNC(=O)OC(C)(C)C)n1
50 to 500 nM

Give the reported DC50 for this molecule. C[C@@H](O)C#Cc1nccc(N2CCCN(c3cc(-c4ccccc4O)nnc3N)CC2)n1
50 to 500 nM

# return recorded DC50 for input Nc1nnc(-c2ccccc2O)cc1N1CCCN(c2ccnc(C#CCN3CC(F)(F)C3)n2)CC1
50 to 500 nM

Return value of DC50 for input C[C@@H]1CCN(c2cc(-c3ccccc3O)nnc2N)CCN1c1ccnc(C#CCN(C)CC(F)F)n1 , no commentary.
50 to 500 nM
